experimentalSystem: T1, human SLC34A2 (human, UniProt O95436 1-690)
T1 construct: whole, on cells; also called human solute carrier 34 A2; NaPi2b
T1 sequence (looked up): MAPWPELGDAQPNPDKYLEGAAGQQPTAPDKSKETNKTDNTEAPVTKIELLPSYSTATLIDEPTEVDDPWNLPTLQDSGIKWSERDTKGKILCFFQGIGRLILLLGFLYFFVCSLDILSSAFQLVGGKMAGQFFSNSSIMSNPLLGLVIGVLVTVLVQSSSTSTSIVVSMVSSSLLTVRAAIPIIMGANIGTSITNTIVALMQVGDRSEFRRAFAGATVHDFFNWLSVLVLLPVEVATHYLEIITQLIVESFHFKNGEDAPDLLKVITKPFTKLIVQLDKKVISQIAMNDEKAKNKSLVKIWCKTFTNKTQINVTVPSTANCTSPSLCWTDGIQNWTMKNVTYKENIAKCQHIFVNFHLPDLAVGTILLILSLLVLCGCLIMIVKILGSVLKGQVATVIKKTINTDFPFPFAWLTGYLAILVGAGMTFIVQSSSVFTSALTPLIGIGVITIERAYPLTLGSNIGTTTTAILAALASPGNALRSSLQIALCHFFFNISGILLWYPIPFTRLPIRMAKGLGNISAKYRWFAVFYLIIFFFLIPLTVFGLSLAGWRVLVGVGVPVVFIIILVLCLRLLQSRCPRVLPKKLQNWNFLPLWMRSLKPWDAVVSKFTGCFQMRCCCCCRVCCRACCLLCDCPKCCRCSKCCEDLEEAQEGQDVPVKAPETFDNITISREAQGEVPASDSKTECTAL
methodSummary: FACS, OVCAR3 cells
Each record here notes measured EC50.
Value expressed in nM; do not type the unit.

Example results:
Return reported EC50; argument: 30H9B8F9.p1.z1 hIgG1 (antibody, V domains shown, humanized hIgG1) VH: QVQLVQSGAEVKKPGASVKVSCKASGYTFTTNNMHWVRQAPGQGLEWMGAIYPGSGATAYNQKFKGRVTMTRDTSTSTVYMELSSLRSEDTAVYYCASGMYGHGAMDYWGQGTLVTVSS VL: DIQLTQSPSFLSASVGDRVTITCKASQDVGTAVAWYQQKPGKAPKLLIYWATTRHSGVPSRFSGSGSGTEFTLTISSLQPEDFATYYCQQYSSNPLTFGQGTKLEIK
2.75

Can you look up the measured EC50 of 30H9B8F9.p1.z5 hIgG1 (antibody, V domains shown, humanized hIgG1) VH: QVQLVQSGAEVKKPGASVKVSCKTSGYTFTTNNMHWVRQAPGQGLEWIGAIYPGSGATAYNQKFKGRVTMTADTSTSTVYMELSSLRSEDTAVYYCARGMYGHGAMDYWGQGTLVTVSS VL: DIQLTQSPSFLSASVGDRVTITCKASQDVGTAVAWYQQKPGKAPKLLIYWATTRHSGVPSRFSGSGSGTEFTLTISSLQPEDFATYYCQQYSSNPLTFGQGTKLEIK for me?
1.43

# lookup: EC50 of 30H9B8F9.p1.z4 hIgG1 (antibody, V domains shown, humanized hIgG1) VH: QVQLVQSGAEVKKPGASVKVSCKASGYTFTTNNMHWVRQAPGQGLEWMGAIYPGSGATAYNQKFKGRVTMTRDTSTSTVYMELSSLRSEDTAVYYCASGMYGHGAMDYWGQGTLVTVSS VL: DIVMTQSPSFLSASVGDRVTITCKASQDVGTAVAWYQQKPGKSPKLLIYWATTRHSGVPDRFTGSGSGTDFIFTISSVQPEDFATYFCQQYSSNPLTFGAGTKLEIK
2.76

So what does the record say about EC50 for xi30H9B8F9 hIgG1 (antibody, V domains shown, chimeric, hIgG1) VH: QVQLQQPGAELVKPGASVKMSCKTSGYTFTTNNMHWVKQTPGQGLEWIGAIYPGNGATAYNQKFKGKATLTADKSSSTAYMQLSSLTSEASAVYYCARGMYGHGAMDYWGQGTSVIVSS VL: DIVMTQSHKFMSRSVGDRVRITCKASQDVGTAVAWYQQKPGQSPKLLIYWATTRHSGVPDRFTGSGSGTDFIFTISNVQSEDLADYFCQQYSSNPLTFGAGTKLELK ?
1.19

So what's the measured EC50 for this one? 62G10E4G8.p3.z8 hIgG1 (antibody, V domains shown, humanized hIgG1) VH: QVQLVQSGAEVKKPGASVKVSCKASGYTFPSYITHWVRQAPGQGLEWIGAIYPGNADTSYIQKFKGRVTMTADKSTSTVYMELSSLRSEDTAVYYCARGTYGTSAWFTYWGQGTLVTVSS VL: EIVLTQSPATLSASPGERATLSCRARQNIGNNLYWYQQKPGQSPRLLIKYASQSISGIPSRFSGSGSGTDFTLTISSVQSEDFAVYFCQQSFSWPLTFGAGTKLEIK
8.61

Reported EC50, binder 30H9B8F9 VH_P1/VL hIgG1 (antibody, V domains shown, PTM-derisked chimeric, hIgG1; that P1 is the N=>S version follows from the humanized .p1 chains; also called 30H9B8F9.p1 hIgG1) VH: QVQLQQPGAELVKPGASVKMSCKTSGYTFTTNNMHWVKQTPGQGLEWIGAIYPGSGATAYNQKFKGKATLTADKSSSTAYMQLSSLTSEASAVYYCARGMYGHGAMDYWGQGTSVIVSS VL: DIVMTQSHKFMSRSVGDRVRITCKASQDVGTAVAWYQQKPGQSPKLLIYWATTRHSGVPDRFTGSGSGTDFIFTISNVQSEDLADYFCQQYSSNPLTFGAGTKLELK : ____
0.68

Look up EC50: 62G10E4G8.p3.z15 hIgG1 (antibody, V domains shown, humanized hIgG1) VH: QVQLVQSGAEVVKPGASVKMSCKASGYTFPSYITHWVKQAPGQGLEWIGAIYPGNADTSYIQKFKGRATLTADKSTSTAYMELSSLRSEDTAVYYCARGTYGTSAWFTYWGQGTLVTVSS VL: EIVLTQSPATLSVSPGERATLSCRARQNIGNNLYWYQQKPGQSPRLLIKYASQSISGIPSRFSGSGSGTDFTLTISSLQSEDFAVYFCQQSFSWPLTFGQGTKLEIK
3.76

Which EC50 reading was recorded for the binder xi62G10E4G8 hIgG1 (antibody, V domains shown, chimeric, hIgG1) VH: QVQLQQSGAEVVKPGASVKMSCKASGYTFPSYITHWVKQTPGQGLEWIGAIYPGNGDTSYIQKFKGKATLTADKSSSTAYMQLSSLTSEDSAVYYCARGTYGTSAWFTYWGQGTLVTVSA VL: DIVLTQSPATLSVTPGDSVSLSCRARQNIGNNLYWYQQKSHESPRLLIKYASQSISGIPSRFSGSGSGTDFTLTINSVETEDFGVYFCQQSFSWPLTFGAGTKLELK ?
3.73

Turning now to a further binder:
EC50 for 30H9B8F9.p1.z12 hIgG1 (antibody, V domains shown, humanized hIgG1) VH: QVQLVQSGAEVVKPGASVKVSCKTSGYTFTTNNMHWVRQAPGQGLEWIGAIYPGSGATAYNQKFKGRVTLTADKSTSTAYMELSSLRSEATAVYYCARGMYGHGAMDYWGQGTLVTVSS VL: DIVMTQSPSFLSASVGDRVTITCKASQDVGTAVAWYQQKPGKSPKLLIYWATTRHSGVPDRFTGSGSGTDFIFTISSVQPEDFATYFCQQYSSNPLTFGAGTKLEIK ?
1.4

Entry source: patent US20240301052A1
